Biological target: HLA-B*58:01
Assay: IEDB peptide-MHC binding, purified MHC/direct/fluorescence; filed as Kd, often an IC50 or EC50 that approximates it; bounds were set here for any values at or beyond the usual limits of such assays
Conditions: source organism: Salmonella enterica
Attribute measured: Kd

[ask] Please tell me: Kd of ALMRWRHPR , system HLA-B*58:01?
[reply] ≥ 20 µM

* * *

Molecular target: HLA-A*02:12
Test: IEDB peptide-MHC binding, purified MHC/direct/fluorescence; filed as Kd, often an IC50 or EC50 that approximates it; bounds were set here for any values at or beyond the usual limits of such assays
Conditions: source organism: Choclo virus
pKd: −log10 of the molar value.
Attribute measured: pKd

[ask] Please tell me: pKd of FVKDWMDRI , system HLA-A*02:12?
[reply] ≤ 4.70
